Value source: PubChem BioAssay AID1159580

For each entry below, report its normalized growth value.
measurement-protocol: chemical genetic growth profiling, strain panel (AID 1159580);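 note: tested at 20 µM; growth read once vehicle control cultures reached saturation at 30 °C; 1 = growth at the plate median or of vehicle wells; lower values mean less growth of the strain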
assay-conditions: S. cerevisiae deletion strains, growth OD, locus YNR049C, strain mso1, hits give low values
In all, about 5,500 compounds went through this assay and about 2,000 (36%) were called active. About 18% were inconclusive and are not listed. The list shows a part of the results.
I'd appreciate a reply containing only the number, no unit.

Which normalized growth is reported for this compound? `COc1c2ccoc2cc2oc(C)cc(=O)c12`
0.993

Which normalized growth is reported for this compound? `CC1=NN(c2ccccc2)C(=O)C1`
0.992

Which normalized growth is reported for this compound? `NC(N)=NC(N)=Nc1ccccc1`
1.01

Which normalized growth is reported for this compound? `NCCNCCNCCN`
0.993

Which normalized growth is reported for this compound? `COc1ccc([C@H]2COc3c(ccc(O)c3OC)C2)c(OC)c1O`
0.995

Which normalized growth is reported for this compound? CC1(C)C(=O)[C@@H]2C[C@@]3(O)C4=CC(=O)O[C@@H](c5ccoc5)[C@]4(C)CCC3[C@@](C)(C2=O)[C@H]1CC(=O)O (some centres undefined)
0.999

Which normalized growth is reported for this compound? `O=C(CCBr)N1CCN(C(=O)CCBr)CC1`
1.01

Which normalized growth is reported for this compound? `CCN(CC)CCNC(=O)c1cc(Cl)c(N)cc1OC`
0.962

Which normalized growth is reported for this compound? `CC(=O)Oc1cccc2c1C(=O)c1c(OC(C)=O)cc(C(=O)O)cc1C2=O`
0.956
